// provenance: PubChem BioAssay AID1996

Details: buffer; pH 7.4; 200.0 µM
QUANTITY_MEASURED: log10 solubility kinetic (log10 of the value in µg/mL)

MOLECULE	QUANTITY_MEASURED	VALUE_OBSERVED
O=C(NC1CCCCC1)c1cc(-c2ccccc2O)on1	log10 solubility kinetic	-0.22
CCc1ccc(N2CN=c3s/c(=C\c4ccccc4)c(=O)n3C2)cc1	log10 solubility kinetic	0.91
COc1ccc(S(=O)(=O)N2CCOCC2)cc1NC(=O)COc1ccc2ccc(=O)oc2c1	log10 solubility kinetic	0.78
Cc1ccccc1CNC(=O)C1CCCN(c2cnccn2)C1 (stereo not given)	log10 solubility kinetic	1.65
Cc1c(C(=O)Nc2ccccc2)c2ccc(C(F)(F)F)cc2n1O	log10 solubility kinetic	0.00
CCCOc1ccc(C2=CSC3=NCCN23)cc1.Cl	log10 solubility kinetic	1.57
COC(=O)c1ccc(S(=O)(=O)N(CCO)Cc2ccccc2)n1C	log10 solubility kinetic	1.68
CN(C)S(=O)(=O)c1cccc(C(=O)NC2CCSc3ccccc32)c1 (stereo not given)	log10 solubility kinetic	0.68
O=C(CN1C(=O)NC2(CCCC2)C1=O)NCCc1ccccc1	log10 solubility kinetic	1.65
Cc1ccc2ncnc(-c3ccccc3)c2c1	log10 solubility kinetic	1.41
O=C(Nc1ccccc1C(=O)NCCc1ccccc1)c1cnccn1	log10 solubility kinetic	0.51
CC1(C)C(CC2OCC(CN3CCCCC3)O2)[C@H]2CC[C@@H]1C2 (stereo not given in full)	log10 solubility kinetic	1.41
COc1ccccc1N1CCN(Cc2nc3ccccc3[nH]2)CC1	log10 solubility kinetic	1.68
O=C(/C=C/c1ccccc1)Nc1cccnc1Oc1ccccc1F	log10 solubility kinetic	0.43
O=C(COc1ccc2ccc(=O)oc2c1)Nc1cccnc1	log10 solubility kinetic	1.15
c1ccc(-c2nc3cccnc3nc2-c2ccccc2)cc1	log10 solubility kinetic	1.52

---

Item-by-item account of solubility kinetic
Details: buffer; pH 7.4; 200.0 µM

COMPOUND	SIGN	solubility kinetic, µg/mL
N#Cc1ccc(C(=O)Nc2cc(S(=O)(=O)N3CCOCC3)ccc2N2CCCC2)cc1	>	66.1
Cc1ccnc(NC(=O)COc2ccc3c(c2)CCC3)c1	=	1.6
CCN1CCN(CC(c2ccccc2)c2ccccc2)CC1	=	29.1
COc1cc2ncnc(NCc3ccc(F)cc3)c2cc1OC	>	47
CCOc1ccc(S(=O)(=O)NCC2CCCO2)c2ccccc12 (centres undefined)	=	42.2
O=C(NCc1ccco1)C(=O)c1cn(CC(=O)N2CCCCCC2)c2ccccc12	=	14.3
CCN(CC(=O)NCc1ccc(F)cc1)S(=O)(=O)c1ccc(Cl)s1	=	10.5
CC1(C)Cc2ccccc2C(CSc2ccccc2C(=O)O)=N1	=	43.1
Cc1ccccc1NC(=O)c1c([N+](=O)[O-])cnn1C	>	39
C=C(C)CN1C(=O)C(=O)N(CC(=C)C)C1=O	>	33.3
CC1CCCC(C)N1C(=O)COC(=O)/C=C/c1ccc(Br)o1 (centres undefined)	=	29.8
C=CCN(C(=O)CN1CCCCC1)c1nc(-c2ccccc2)cs1	=	2.4
Cc1cc(C)c2c(N)c(C(=O)Nc3ccc([N+](=O)[O-])cc3)sc2n1	<	0.2
CC(C)C1C(=O)CC(c2ccccc2)NC1c1ccccc1 (centres undefined)	=	1.6
C/C=C(\C)CN1CCCC(CO)(Cc2ccccc2)C1 (centres undefined)	=	34.3
NS(=O)(=O)c1ccc(CCNc2ccc(C(F)(F)F)cn2)cc1	=	48.1
CCC(OC(=O)c1nsc(Cl)c1Cl)C(=O)NCC1CCCO1 (centres undefined)	=	52.8
COc1ccc(S(=O)(=O)N2CCOCC2)cc1NC(=O)CN1C(=O)CN(C)C1=O	>	64
COCCNC(=O)[C@@H]1CSC2c3ccccc3C(=O)N21 (some centres undefined)	>	43.9
Cc1ccc(N2C(=O)C3CCC(C)(C2=O)C3(C)C)cc1C (centres undefined)	=	32.3
O=C(COC(=O)c1c(Cl)cccc1Cl)NCC1CCCO1 (centres undefined)	>	49.8
COc1ccccc1Nc1nc(-c2sc(N)nc2C)cs1	=	19.2
CCS(=O)c1scc(-c2ccc(Cl)cc2)c1C#N (centres undefined)	=	20.9
Cc1ccc(F)cc1NC(=O)CN1CCN(c2ccccn2)CC1	>	49.3

---

Conditions: buffer; pH 7.4; 200.0 µM
QUANTITY_MEASURED: log10(solubility kinetic) (log10 of the value in µg/mL)

COMPOUND	log10(solubility kinetic)
COc1ccccc1/C=C/C(=O)N1CCc2cc(OC)c(OC)cc2C1C (stereo not given)	1.52
O=C(/C=C/c1ccc(Cl)cc1)Nc1cc(S(=O)(=O)N2CCOCC2)ccc1N1CCOCC1	0.77
CSc1ncccc1C(=O)OCC(=O)c1ccc[nH]1	0.99
CCOc1c(O)ccc(/C=C2\SC(=S)NC2=O)c1[N+](=O)[O-]	0.83
COc1ccc(NC(=O)COC(=O)C2CCN(S(=O)(=O)c3cccs3)CC2)cc1OC	1.67
Cc1ccc(CNC(=O)CNC(=O)c2ccc(Br)o2)cc1	1.16
O=C(COC(=O)/C=C/c1cc(Br)ccc1F)NC1CC1	0.85
O=S(=O)(Nc1ccccc1N1CCCCC1)c1ccc(F)cc1	0.40
CCCCc1ccccc1NC(=S)NC1CCCC1	1.48
Cc1ccccc1CN(C)C(C)C(=O)NCc1ccccc1 (stereo not given)	1.57
CC(=O)Nc1ccc2nc(NC(=O)c3cccnc3)sc2c1	0.87
O=C(CN(c1ccccc1Cl)S(=O)(=O)c1ccccc1)NCc1ccccc1	1.27
CC1(C)CC2(CCO1)OC(=O)CC2C(=O)Nc1c(Cl)cccc1Cl (stereo not given)	1.72
O=C(NCc1ccccc1)c1cc[n+](Cc2ccccc2)cc1.[Cl-]	1.70

---

Conditions: buffer; pH 7.4; 200.0 µM
Item-by-item account of log10(solubility kinetic)
QUANTITY_MEASURED: log10(solubility kinetic) (log10 of the value in µg/mL)

COMPOUND	log10(solubility kinetic)
CCN(CC(=O)NCc1ccc(F)cc1)CC(=O)Nc1ccc(Br)cc1F	1.77
Cc1cccc(C(=O)N/C(=C\c2ccco2)C(=O)N2CCCCCC2)c1	1.70
COc1ccc(CCNC(=O)C(=O)c2c(C)[nH]c3ccccc23)cc1	-0.30
Cc1ccccc1CNC(=O)C(=O)Nc1nccs1	0.08
CCCNC(=O)CSc1nc2ccccc2c(=O)n1CCC	1.43
Cc1cc(NC(=O)NC(C(F)(F)F)C(F)(F)F)no1	1.36
COc1ccc(/C=C/C(=O)O)cc1S(=O)(=O)NCc1ccccc1	1.70
COc1ccc(NCC(=O)Nc2cccc(C(F)(F)F)c2)cc1S(=O)(=O)N1CCOCC1	0.53
Cc1cc(C)cc(NC(=O)COC(=O)COc2ccc(N(C)S(=O)(=O)c3cccs3)cc2)c1	0.96
Cc1cc(-c2ccc(S(=O)(=O)N3CCCCC3)s2)on1	0.41
O=[N+]([O-])c1ccc(-c2cn(-c3ccccc3F)c(=S)[nH]2)cc1	-0.22
COc1ccc2ccc(O)c(CN3CC=C(c4ccccc4)CC3)c2c1	0.20
CCCCn1c(N)c(N(CC)C(=O)c2cccs2)c(=O)[nH]c1=O	1.00
CC(CCc1ccccc1)NC(=O)c1ccc(Br)cc1 (centres undefined)	0.04
CCN(Cc1ccccc1)S(=O)(=O)c1ccc(F)cc1	1.19

---

Settings: buffer; pH 7.4; 200.0 µM
QUANTITY_MEASURED: solubility kinetic (mg/mL)

COMPOUND	SIGN	VALUE_OBSERVED
COc1ccc(NC(=O)c2ccco2)cc1NC(=O)c1ccccc1	=	0.0049
O=CN1c2ccccc2CSc2ccccc21	=	0.0329
O=C(Cc1ccccc1)c1ccccc1C(=O)N1CCCCC1	>	0.0461
CC(CCc1ccc(O)cc1)NCc1ccc(Cl)cc1Cl (centres undefined)	>	0.0486
c1coc(CNc2nc3ccccc3s2)c1	=	0.0323
Cl.Nc1ncnc2nc[nH]c12	>	0.0257
COc1cc(Br)c(Br)c(Br)c1N	=	0.0009
Cc1[nH]c2ccccc2c1C(=O)CCl	=	0.0121
O=C(COC(=O)c1cnccn1)Nc1cccc(F)c1	>	0.0413
CC(C)(C)CC(=O)NCCCN1CCOCC1	>	0.0364
CC1CCCCC1NC(=O)COC(=O)c1cc(=O)[nH]c2ccccc12 (centres undefined)	=	0.0068
CCC1(c2ccc(F)cc2)NC(=O)N(CC(=O)N2CCN(C(=O)c3ccco3)CC2)C1=O (centres undefined)	>	0.0664
CCC/C(O)=C1\C(=O)CC(C)(C)CC1=Nc1cccc([N+](=O)[O-])c1	=	0.0426
COc1ccccc1C1(O)C(=O)Nc2ccccc21 (centres undefined)	>	0.0383
O=C(NNC1=NS(=O)(=O)c2ccccc21)c1ccccc1	>	0.0452
COc1cc(OC)c(NC(=O)/C=C/C(=O)O)cc1Cl	>	0.0429
Cc1sc2ncnc(Sc3ccccc3C(=O)O)c2c1C	=	0.0469
CC(=O)c1ccc(OCC(=O)N2CCCC2c2ccc3c(c2)OCCCO3)cc1 (centres undefined)	=	0.0492
CSc1ccc(S(=O)(=O)NC2CC2)cc1	>	0.0365
O=C(COC(=O)c1ccc(Br)o1)NC12CC3CC(CC(C3)C1)C2	=	0.0343
Cc1c(Cl)cccc1NC(=O)C1CCN(S(C)(=O)=O)CC1	=	0.0169
CCC(C)c1ccc(S(=O)(=O)N2CCN3CCCC3C2)cc1 (centres undefined)	=	0.0341
Cc1ccc(C)n1-c1ccc(C(=O)/C=C/N(C)C)cc1	=	0.0256
CCn1ncc(S(=O)(=O)Nc2cc(Cl)ccc2C)c1C	>	0.0471
Cc1ccc(C(=O)NC2CCCC2)s1	=	0.0299
CC(C)CCN1CCN(Cc2nc3ccccc3s2)CC1CCO (centres undefined)	>	0.0521
Cc1nc(N2CCN(C)CC2)c2cc(-c3ccccc3)sc2n1	=	0.0018
COc1cccc(NC(=O)Cn2cc(C(=O)C3CC3)c3ccccc32)c1	=	0.0008
Cc1cccc(C)c1NC(=O)CSC(=S)N1CCCC1	=	0.0096
COC(=O)c1c(C)nsc1NC(=O)Oc1ccccc1	=	0.0027
CN1CCN(S(=O)(=O)Cc2ccc(Cl)cc2)CC1	=	0.0338
CCCc1cnc(N2CCN(C(=S)NC)CC2)nc1	=	0.0387
CC(C)OC(=O)c1ccc(COC(=O)CNC(=O)c2ccco2)cc1	=	0.0348
O=C(NCc1c(Cl)cccc1Oc1ccccc1)c1ccccc1	=	0.0009
CC1Oc2ccccc2N(CC(=O)NC2CCCC2)C1=O (centres undefined)	>	0.0433
Cc1ccccc1S(=O)(=O)NC(=NCc1ccc(F)cc1)c1ccccc1	=	0.0341
O=C(/C=C/c1ccco1)N(Cc1ccc(Cl)cc1)C1CCS(=O)(=O)C1 (centres undefined)	=	0.0462
CC1CCCC(NC(=O)COC(=O)CCC(=O)c2cccs2)C1C (centres undefined)	>	0.0527
O=C(Nc1ccc(S(=O)(=O)N2CCCCC2)cc1)c1ccco1	=	0.0462
CN(Cc1c(F)cccc1Cl)C(=O)c1ccc2ccccc2n1	>	0.0493
Cc1nc(N2CCOCC2)nc(Oc2ccccc2)c1[N+](=O)[O-]	=	0.0058
O=C(CN1C(=O)C2CCCCC2C1=O)Nc1ccccc1C(=O)O (centres undefined)	>	0.0496
CC(=O)NC(CC(=O)Nc1nc(C)cs1)c1ccccc1 (centres undefined)	>	0.0455
CN(c1ccccc1)S(=O)(=O)c1cccc(NC(=O)c2ccc(Cl)c([N+](=O)[O-])c2)c1	=	0.0018
CCc1ccc(OCC2NCCc3cc(OC)c(OC)cc32)cc1 (centres undefined)	>	0.0491
Cc1ccc(OCCNC(=O)c2ccc3ccccc3n2)cc1	=	0.0054
CCNS(=O)(=O)c1ccc(CCC(=O)NCc2cccnc2)cc1	=	0.0356
CS(=O)(=NS(=O)(=O)c1ccc(Cl)cc1)c1ccccc1 (centres undefined)	>	0.0495
COc1ccc(OC)c(/C=C/c2c([N+](=O)[O-])c(=O)n(C)c(=O)n2C)c1	=	0.0034
